Just for reference, PubChem BioAssay AID485341 is where these values come from.

# target.under.test: Beta-lactamase (Escherichia coli (strain K12)) (UniProt P00811)
# Sequence (P00811 whole entry, looked up): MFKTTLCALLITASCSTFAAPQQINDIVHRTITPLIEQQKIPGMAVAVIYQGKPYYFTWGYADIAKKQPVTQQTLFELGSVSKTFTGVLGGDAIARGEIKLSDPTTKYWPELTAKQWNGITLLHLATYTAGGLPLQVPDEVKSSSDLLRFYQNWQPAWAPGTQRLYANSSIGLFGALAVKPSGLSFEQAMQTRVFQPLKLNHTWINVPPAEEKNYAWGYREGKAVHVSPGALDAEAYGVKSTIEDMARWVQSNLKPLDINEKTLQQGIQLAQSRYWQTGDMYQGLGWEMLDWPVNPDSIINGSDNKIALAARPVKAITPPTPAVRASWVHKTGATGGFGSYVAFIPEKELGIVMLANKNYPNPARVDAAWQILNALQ
# experiment.notes: qHTS Inhibitors of AmpC Beta-Lactamase (assay without detergent); also: nearly all actives have a fitted effect of over 20% in size
# protocol.conditions: AmpC nitrocefin hydrolysis, absorbance 480 nm, 0.0001% Triton; series mostly up to 57.1 µM
The campaign covered roughly 330,000 compounds. About 1,700 (0.52%) were called active. Calls follow the shape of the dose curve; as a rule, active = well fitted inhibition curve with a large enough effect; inconclusive = small, poorly fitted or top-dose-only effect; inactive = no such curve, though single readings can be large or run the other way. The full list was thinned out, with actives kept by preference.
Select the correct class. Options are yes (1) = active, no (0) = inactive and nothing else.

Reference set, count: 2
COc1cccc(CNC(=O)CN(C)S(=O)(=O)c2ccc3c(c2)c(=O)n(C)c(=O)n3C)c1	no (0)
CCCC(CNC(=O)COC(=O)C1=NNC(=O)CC1)c1ccc(Cl)cc1Cl (stereo unspecified)	no (0)

Recorded test call requested for Clc1ccc(C2CC(c3cccs3)n3ncnc3N2)cc1Cl (stereo unspecified)
yes (1)

Recorded test call requested for CCOC(=O)N1CCC(NC(=O)Cn2cc3c(n2)CCCCC3)CC1
yes (1)

Recorded test call requested for C=CCNC(=O)c1csc(-c2ccccc2)n1
no (0)

* * *

# target.under.test: Beta-lactamase (Escherichia coli (strain K12)) (UniProt P00811)
# experiment.notes: qHTS Inhibitors of AmpC Beta-Lactamase (assay without detergent); also: nearly all actives have a fitted effect of over 20% in size
# protocol.conditions: AmpC nitrocefin hydrolysis, absorbance 480 nm, 0.0001% Triton; series mostly up to 57.1 µM
# Experimental: NIH Molecular Libraries Probe Production Network [MLPCN] NIH Chemical Genomics Center [NCGC] Assay Provider: Professor Brian Shoichet, UCSF Assay Overview: This aggregation profiling approach exploits the sensitivity of aggregate formation to detergent. Inhibition of b-lactamase is measured in the presence and absence of 0.01% Triton X-100. This particular assay had the prescence of 0.01% Triton X-100. […] AmpC activity was measured by following the absorbance at 480 nm. […]
Hit rate of the full screen: of about 330,000 compounds, about 1,700 (0.52%) were called active. The call rests on the fitted dose curve; in most records, active means well fitted inhibition curve with a large enough effect; inconclusive means small, poorly fitted or top-dose-only effect; inactive means no such curve, though single readings can be large or run the other way. For the sample, actives were picked, then their nearest neighbours and some compounds at random.
Select the correct class. Options are active, inactive and nothing else.

Reference set, count: 6
CCCCn1c(=S)[nH]c2ccccc2c1=O	inactive
O=C(CCc1ccccc1Cl)Nc1ccc(S(=O)(=O)Nc2nccs2)cc1	inactive
CCN=C1SC(CC(=O)Nc2ccc(C)cc2)C(=O)N1CC (stereo not given)	inactive
CC1(c2ccccc2Cl)NC(=O)N(CC(=O)NC(=O)NCc2ccco2)C1=O (stereo not given)	inactive
CC(=O)N/C(=C/c1ccc(OC(F)F)cc1)C(=O)O	inactive
CCOC(=O)c1sc(NC(=O)CSc2n[nH]c(CC)n2)nc1C	inactive

Recorded test call requested for CCc1ccc(CN(C)C(C)C(=O)Nc2ccc(S(=O)(=O)N3CCCC3)cc2)cc1 (stereo not given)
inactive

Recorded test call requested for Cc1ccc2c(c1)C(c1ccccc1)N(C(=O)c1ccc(F)cc1)CC(=O)N2 (stereo not given)
inactive

Recorded test call requested for CN(c1ccccn1)c1ncnc2[nH]ncc12
inactive

Recorded test call requested for CCOC(=O)c1sc(NC(=O)CSc2nc(O)c(Cc3ccccc3)c(=O)[nH]2)nc1C
active

Recorded test call requested for COc1ccc(Cn2c(=S)[nH]c3cc(C(=O)NCCCN4CCOCC4)ccc3c2=O)cc1
inactive

Recorded test call requested for COc1ccc(/C=C2/SC(=O)N(CCCCCC(=O)Nc3ccccc3C(=O)O)C2=S)cc1
inactive
